So I've got a bunch of compounds here, and I need their IC50 values.
- assayText: Antitumor activity against human KB3 cells after 96 hrs by MTT assay
- Format: functional, cell-based
- conditionSet: KB3, 96 h

Short answer for C=C(C)[C@H]1CC=C(C)C2=CO[C@@H](c3ccccc3F)[C@@H]21 : IC50 was 1 µM

Short answer for C=C(C)[C@H]1CC(=O)C(C)=C2[C@@H](C(=O)OCC)O[C@@H](c3cccc(Cl)c3Cl)[C@@H]21 : IC50 was 5 µM

Short answer for C=C(C)[C@H]1CC=C(C)C2=CO[C@@H](c3cccc4ccccc34)[C@@H]21 : IC50 was > 100 µM

Short answer for C=C(C)[C@H]1CC=C(C)C2=CO[C@@H](c3ccco3)[C@@H]21 : IC50 was 2 µM

Short answer for C=C(C)[C@H]1CC=C(C)C2=CO[C@@H](c3ccccc3Br)[C@@H]21 : IC50 was 4 µM

Short answer for C=C(C)[C@H]1CC=C(C)[C@@]2(O)[C@@H]1[C@H](c1ccccc1Br)O[C@@H]2C(=O)OCC1CCCC1 : IC50 was > 100 µM

Short answer for C=C(C)[C@H]1CC=C(C)[C@@]2(O)[C@@H]1[C@H](c1ccccc1Br)O[C@@H]2C(=O)OCC : IC50 was 20 µM

Short answer for C=C(C)[C@H]1CC=C(C)[C@@]2(O)[C@@H]1[C@H](c1cccc(Br)c1)O[C@@H]2C(=O)OCC : IC50 was 3 µM
